molecular target: cGMP-specific 3',5'-cyclic phosphodiesterase (Homo sapiens)
VALUE_KIND: pIC50
Schema: pIC50 number; meaning minus log10 of the concentration expressed in molar units.

SMILES_STRUCTURE: COC(=O)[C@@H]1Cc2c([nH]c3ccccc23)[C@H](c2ccc(OC)cc2OC)N1
pIC50: 5.19

Shift focus to the following entry.
In: Form field: reported pIC50 of `COc1ccc([C@H]2c3[nH]c4ccccc4c3Cc3c(O)n(C(C)(C)C)c(=O)n32)c(OC)c1`
Out: 5.62
